- protocol.notes: decrease of insulin promoter-GFP reporter – imaging, high-content screening, mouse beta cells (AID 1628)
- stated.conditions: MIN6 insulin promoter GFP reporter, at 5 µM, stronger effect = lower value
The whole screen tested about 190,000 compounds, of which about 930 (0.49%) were called active. Some of the results follow. Entries with a potency or affinity are not part of this list.
z-score values for the compounds below.
reported.metric: z-score

>  <compound>
COCCCn1cc(C(=O)c2cc(Br)ccc2O)cc(C#N)c1=O

>  <reported.metric>
z-score

>  <result>
2.45 (inactive)

$$$$
>  <compound>
CN1C(=O)CC(N2CCN(Cc3ccc(Cl)cc3)CC2)C1=O (stereo not given)

>  <reported.metric>
z-score

>  <result>
3.88 (inactive)

$$$$
>  <compound>
CC(=Nc1ccc(C)cc1C)c1sc2ccccc2c1O

>  <reported.metric>
z-score

>  <result>
3.96 (inactive)

$$$$
>  <compound>
COC(=O)CCC(NC(=O)c1cc(C)oc1C)C(=O)OC (stereo not given)

>  <reported.metric>
z-score

>  <result>
0.79 (inactive)

$$$$
>  <compound>
Cc1ccc(Nc2nc(Cl)c(C=O)s2)cc1Cl

>  <reported.metric>
z-score

>  <result>
6.83 (inactive)

$$$$
>  <compound>
Cc1ccc(C(OCC(O)CNC(C)c2ccccc2)c2ccccc2)cc1 (stereo not given)

>  <reported.metric>
z-score

>  <result>
-3.13 (active)

$$$$
>  <compound>
CCC(=O)NC(Nc1ncc(C)s1)(C(=O)OC)C(F)(F)F (stereo not given)

>  <reported.metric>
z-score

>  <result>
0.55 (inactive)

$$$$
>  <compound>
Cc1ccc(NC2=NCC(=O)N2C2CCCC2)c(C)c1

>  <reported.metric>
z-score

>  <result>
0.57 (inactive)

$$$$
>  <compound>
Cc1ccc(Nc2nc3c([nH]2)c(=O)n(C)c(=O)n3C)cc1

>  <reported.metric>
z-score

>  <result>
3.32 (inactive)

$$$$
>  <compound>
Cc1ccc(C)c(N=Nc2ccc(O)c3ncccc23)c1

>  <reported.metric>
z-score

>  <result>
-4.77 (active)

$$$$
>  <compound>
Clc1ccc2oc(-c3cccnc3NCc3ccccc3)nc2c1

>  <reported.metric>
z-score

>  <result>
-3.89 (active)

$$$$
>  <compound>
Cc1cc(OCC(=O)NCc2cccnc2)ccc1[N+](=O)[O-]

>  <reported.metric>
z-score

>  <result>
-4.17 (active)

$$$$
>  <compound>
CCN(CC)c1ccc(/C=N/N2CCN(Cc3ccc(Cl)cc3)CC2)c(O)c1

>  <reported.metric>
z-score

>  <result>
-5.88 (active)

$$$$
>  <compound>
O=C(N=C1SCC(=O)N1c1ccccc1Cl)c1ccccc1

>  <reported.metric>
z-score

>  <result>
5.04 (inactive)

$$$$
>  <compound>
NC(=S)N/N=C/c1cccc(O)c1O

>  <reported.metric>
z-score

>  <result>
-5.73 (active)

$$$$
>  <compound>
Clc1ccc2oc(-c3ccccn3)nc2c1

>  <reported.metric>
z-score

>  <result>
3 (inactive)

$$$$
>  <compound>
CSc1nsc(/C=C/Nc2ccc(C)cc2)c1C#N

>  <reported.metric>
z-score

>  <result>
3.5 (inactive)

$$$$
>  <compound>
O=C(NCCN1CCN(Cc2ccc([N+](=O)[O-])cc2)CC1)C(=O)Nc1ccccc1

>  <reported.metric>
z-score

>  <result>
-3.53 (active)

$$$$
>  <compound>
N#CC(C#N)=C1C=C2C=C(N3CCCCC3)CCC2CC1 (stereo not given)

>  <reported.metric>
z-score

>  <result>
18.2 (inactive)

$$$$
>  <compound>
N#C/C(C(=O)c1ccccc1)=C1/SC=C(N)N1c1ccccc1

>  <reported.metric>
z-score

>  <result>
5.96 (inactive)

$$$$

All figures here come from PubChem BioAssay AID1628.
